Source: the Deep4Chem optical property database

test: solvent given as SMILES
conditions: in C1COCCO1
Below: a set of entries, each annotated with reported absorption maximum.
experimental_endpoint: absorption maximum

1. Fc1ccc(-c2nc3n(c2-c2ccncc2)CCS3)cc1	328.5 nm
2. c1ccc(-c2ccc(-c3ccc(-c4cc(-c5ccc(-c6ccc(-c7ccccc7)cc6)cc5)cc(-c5ccc(-c6ccc(-c7ccccc7)cc6)cc5)c4)cc3)cc2)cc1	306.5 nm
3. N#CC(C#N)=Cc1cn(-c2ccccc2)nc1-c1ccccc1	353 nm
4. O=P1(c2ccccc2)C(c2cc(C(F)(F)F)cc(C(F)(F)F)c2)=Cc2c3ccc4cccc5ccc(c6cc(-c7ccc(N(c8ccccc8)c8ccccc8)cc7)n1c26)c3c45 (stereo unspecified)	436 nm
5. CC(C)(C)c1ccc(-c2nc3c4ccc(-c5cc6ccccc6c6ccccc56)cc4c4cc(-c5cc6ccccc6c6ccccc56)ccc4c3n2-c2ccc(C(C)(C)C)cc2)cc1	325 nm
6. Cc1cc(O)c(C(C)C)cc1/N=C/c1ccc(O)cc1	341 nm

----------
Property: absorption maximum; scope: individual compounds
test: solvent given as SMILES
conditions: in C1CCOC1
experimental_endpoint: absorption maximum (nm)

1. CC1=[N+]2C(=C(c3ccc(C#N)cc3)c3ccc(C)n3[B-]2(F)F)C=C1	516
2. O=C1c2ccc3c4c(Oc5ccccc5)cc5c6c(ccc(c7c(Oc8ccccc8)cc(c2c37)C(=O)N1c1ccc(O)cc1)c64)C(=O)N(c1ccc(O)cc1)C5=O	513
3. CC(C)(C)c1ccc(-c2c(-c3ccc(N(c4ccccc4)c4ccccc4)cc3)cc(-c3ccc(N(c4ccccc4)c4ccccc4)cc3)c(-c3ccc(C(C)(C)C)cc3)c2-c2ccc(C(C)(C)C)cc2)cc1	316
4. Cn1nc(-c2ccccc2)c2nc3cc(Cl)ccc3nc21	429
5. CC(C)(C)c1ccc2c(c1)c1cc(C(C)(C)C)ccc1n2-c1ccc(C(=O)c2ccncc2)cc1	367.32

----------
test: solvent given as SMILES
conditions: in C1CCCCC1
# absorption maximum listing for each entry below
experimental_endpoint: absorption maximum (nm)

1. CCC(C)(C)c1ccc2c(c1)C(CCOC)(CCOC)c1cc(-c3ccc4c(c3)C(CCOC)(CCOC)c3cc(C(C)(C)CC)ccc3-4)ccc1-2	331
2. CC(C)(C)c1ccc2c(c1)c1cc(C(C)(C)C)ccc1n2-c1ccc2oc3nc4oc5ccc(C(F)(F)F)cc5c4cc3c2c1	343
3. Cc1cc(=O)oc2c1cc(Br)c1occ(C)c12	333
4. O=[N+]([O-])c1ccc(F)cc1C1CC(c2cccc3ccccc23)=NN1c1ccccc1 (stereo not given)	365
5. N#Cc1cc(-c2ccccc2)c(N2c3ccccc3Oc3ccccc32)c(-c2ccccc2)c1	405

----------
Items are presented alongside their recorded absorption maximum.
test: solvent given as SMILES
conditions: in Cc1ccccc1
experimental_endpoint: absorption maximum (nm)

1. CCC1=C(C)C2=C(c3ccc(-c4c5ccccc5c(-c5ccccc5)c5ccccc45)cc3)c3c(C)c(CC)c(C)n3[B-](F)(F)[N+]2=C1C	529
2. COC(=O)C(Cc1ccc2oc(-c3ccc(N(C)C)cc3)nc2c1)NC(=O)OC(C)(C)C (stereo not given)	342
3. CCCCCCCCC1(CCCCCCCC)c2cc(C#Cc3ccc(N(c4ccccc4)c4ccccc4)cc3)ccc2-c2ccc(C=O)cc21	388
4. Cc1nnc(-c2ccc(-n3c4ccccc4c4ccccc43)cc2)o1	340
5. c1ccc2c(c1)-c1ccccc1C21c2ccccc2N(c2ccc(-c3nc([C@]45CC6CC(C[C@@H](C6)C4)C5)nc([C@]45C[C@H]6C[C@@H](C[C@H](C6)C4)C5)n3)cc2)c2ccccc21	380.1
